The following molecules are listed with their measured Percent Effect values.
- Tested on: Wolbachia pipientis
- Assay remarks: Anti-Wolbachia Cell-Based Screen
- Type: functional
- Design: scale not given: in the data most compounds retested in dose-response had high values
- Condition notes: 5 µM
In all, about 48,000 compounds went through this assay and about 13,000 (27%) showed an effect of 50% or more. The list shows a part of the results.
Just the number in %, nothing appended.

Illustrative cases are given below, each with its answer.
Inquiry: Report Percent Effect from Wolbachia pipientis testing of CCc1nc(C)c(CN2CCN(c3ncnc4scc(C)c34)CC2)[nH]1
Reply text: -4.164

Inquiry: Report Percent Effect from Wolbachia pipientis testing of c1cncc(COCC2CN(Cc3ccco3)Cc3ccnn3C2)c1 (stereo unspecified)
Reply text: -0.3306

Inquiry: Report Percent Effect from Wolbachia pipientis testing of CC(C)C(O)C1CCN(c2ccnc(C(=O)NCc3ccco3)c2)CC1 (stereo unspecified)
Reply text: -3

Continuing:
Inquiry: Report Percent Effect from Wolbachia pipientis testing of COC(=O)c1ccc2ccn(CC3CCCO3)c(=O)c2c1 (stereo unspecified)
Reply text: -4.095

Inquiry: Report Percent Effect from Wolbachia pipientis testing of Cc1cccc(C(=O)N(C)CC(=O)N2CCCC2)c1C
Reply text: 11.26

Inquiry: Report Percent Effect from Wolbachia pipientis testing of Cc1nc(C)n(Cc2cccc(NC(=O)N(C)CCC(C)O)c2)n1 (stereo unspecified)
Reply text: -6.821

----------
- Test system: Wolbachia pipientis
- Assay remarks: Anti-Wolbachia Cell-Based Screen
- Type: functional
- Parameters: scale not given: in the data most compounds retested in dose-response had high values
- Condition notes: 5 µM
The whole screen tested about 48,000 compounds, of which about 13,000 (27%) showed an effect of 50% or more. Some of the results follow.
The following molecules are listed with their measured Percent Effect values.
Just the number in %, nothing appended.

Inquiry: In one line, give reported Percent Effect of the entry CC(C)N1CCOCC2(CN(Cc3nccs3)CCO2)C1.O=C(O)C(F)(F)F.O=C(O)C(F)(F)F (stereo unspecified) .
Reply text: 13.74

Continuing:
Inquiry: In one line, give reported Percent Effect of the entry Cc1nc(C2CCCN2CC(=O)NCCc2ccsc2)no1 (stereo unspecified) .
Reply text: -6.143

----------
- Test system: Wolbachia pipientis
- Assay remarks: Anti-Wolbachia Cell-Based Screen
- Format: functional
- Parameters: scale not given: in the data most compounds retested in dose-response had high values
- Condition notes: 5 µM
In all, about 48,000 compounds went through this assay and about 13,000 (27%) showed an effect of 50% or more. The list shows a part of the results.
The following molecules are listed with their measured Percent Effect values.
Just the number in %, nothing appended.

Inquiry: In one line, give reported Percent Effect of the entry COCCC1(CO)CCCN(Cc2ccc(C#N)cc2)C1 (configuration not stated) .
Reply text: 0.3825

Inquiry: In one line, give reported Percent Effect of the entry Cc1nn(C(C)C)c(C)c1S(=O)(=O)Nc1ccc(C(=O)O)c(Cl)c1 .
Reply text: 2.82

Inquiry: In one line, give reported Percent Effect of the entry COc1ccc(C(=O)N2CCOC(Cc3cccc(C(F)(F)F)c3)C2)o1 (configuration not stated) .
Reply text: -4.741

Here is the next item to consider.
Inquiry: In one line, give reported Percent Effect of the entry CC(=O)N1CCC(c2nc3ccc(-c4ccnn4C)cn3n2)CC1.O=C(O)C(F)(F)F .
Reply text: 79.91
